In this section, each of the molecules is paired with its reported AC50 cell viability.
system: HCT116; experiment: AC50 cell viability (CellTiter-Glo); higher = less potent; conditions: 48 h;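 further: HCT116 colorectal carcinoma cells screened at five concentrations per compound, luminescent viability scaled between DMSO wells and empty wells on each plate, curves fitted per compound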
Report the value in µM with no unit label.

molecule=CNc1nc(-c2ccc3c(N)n[nH]c3c2)cc(N2C[C@@H](C(=O)NC3CCCCC3)CC[C@H]2C)n1 readout="AC50 cell viability" observed_result=18.6

So what's the measured AC50 cell viability for this one? `CNC(=O)c1ccc2c(c1)NC(=O)/C2=C(\Nc1cccc(CN(C)C)c1)c1ccccc1`
18.6

So what's the measured AC50 cell viability for this one? `Cc1cc(C(=O)Nc2cc(Nc3ccc4c(/C=C/c5ccccn5)[nH]nc4c3)ccc2F)n(C)n1`
10.5
